# assay.details: qHTS for Inhibitors of the Aldehyde Dehydrogenase Family (ALDH1A2, ALDH1A3, ALDH2, ALDH3A1) (AID 2061307); note: nearly all actives have a fitted effect of over 50% in size; for Potency: test system not described further here; potency is the fitted concentration of half-maximal effect
# condition.summary: ALDH inhibition qHTS; series mostly up to 50.3 µM
Records with an inconclusive call do not appear. The source made the active and inactive calls. Calls come from the whole dose curve; as a rule, active = well fitted inhibition curve with a large enough effect; inconclusive = small, poorly fitted or top-dose-only effect; inactive = no such curve, though single readings can be large or run the other way.
metric: Potency

// below: answered compounds
{"columns": ["input.smiles", "meas.value"],
 "data": [
  ["CC(=O)Nc1ccc(NC(=O)c2sc(COc3ccc(F)cc3)nc2C)cc1", "inactive"],
  ["N#Cc1cccc(-c2ccc3nc(-c4ccccc4)cn3c2)c1", "inactive"],
  ["Cc1ccc(CNS(=O)(=O)c2ccc3c(c2)CN(C(=O)c2cccnc2)CC3)o1", "inactive"],
  ["Cc1cnc(-c2ccccc2C2COC2)nc1NCc1ccc(-n2ccnn2)cc1", "inactive"]
]}

Give the reported value of Potency for this record: O=C(O)c1csc(-n2[nH]c(-c3ccc(F)c(F)c3)cc2=O)n1
inactive

Give the reported value of Potency for this record: O=C1C=CC(=O)N1c1cccc(Br)c1
89.6 nM (active)

Give the reported value of Potency for this record: Cc1cc(=O)n2[nH]c(NC(=O)c3ccccc3C)nc2n1
inactive

Give the reported value of Potency for this record: Cc1cccc(Nc2nc(-c3ccccc3)c3cc(Cl)ccc3n2)c1
12600 nM (active)

Give the reported value of Potency for this record: O=C(NCc1ccccc1Cl)c1ccc(-c2nn[nH]n2)cc1
inactive

Give the reported value of Potency for this record: Cc1ccc(OCCn2c3c(c4ccccc42)CN(C(=O)C2CCCCC2)CC3)cc1
1590 nM (active)

Give the reported value of Potency for this record: COc1cccc(C2=Nn3c(nnc3-c3ccccc3C)SC2)c1
2510 nM (active)

Give the reported value of Potency for this record: COC(=O)c1ccc(CNc2ncnc3ccccc23)cc1
708 nM (active)

Give the reported value of Potency for this record: c1cc2c(cc1CNc1ccc(N3CCOCC3)cc1)OCO2
11300 nM (active)

Give the reported value of Potency for this record: COc1cccc(N2CCN(C(=O)CCCCCn3c(=O)[nH]c4ccccc4c3=O)CC2)c1
inactive

Give the reported value of Potency for this record: O=C(Nc1ccnc(Cc2ccccc2)c1)c1ccc(-c2cccc([N+](=O)[O-])c2)o1
2010 nM (active)

###

# assay.details: BET inhibitor-based combinations targeting novel dependencies in MECOM-rearranged (r) AML: AML-191 cell line (AID 2202236; note: nearly all actives have a fitted effect of over 35% in size)
# condition.summary: AML-191 viability, CellTiter-Glo luminescence, 48 h; series mostly up to 46 µM
Records with an inconclusive call do not appear. Active and inactive are the calls of the source. Calls come from the whole dose curve; as a rule, active = well fitted inhibition curve with a large enough effect; inconclusive = small, poorly fitted or top-dose-only effect; inactive = flat fitted curve, though single readings scatter.
Can you answer with just one of these options? y (active), n (inactive)

So what was the verdict on C=CCc1cccc(/C=N/NC(=O)CN2CCN(Cc3ccccc3)CC2)c1O in this test?
y

So what was the verdict on C[C@H]1C[C@@H](n2c(Nc3ccc(OC(F)(F)F)cc3)nc3cc(CCC(=O)O)ccc32)CC(C)(C)C1 in this test?
y

So what was the verdict on C[C@H](CCC(=O)O)[C@H]1CC[C@H]2[C@@H]3[C@@H](O)C[C@@H]4C[C@H](O)CC[C@]4(C)[C@H]3CC[C@]12C in this test?
n

So what was the verdict on CC(=O)NCC(=O)N1[C@@H]2CC[C@H]1c1ccc(Nc3ncc(C(F)(F)F)c(NC4CCC4)n3)cc12 in this test?
y

So what was the verdict on COc1cc(C(=O)O)ccc1NC(=O)[C@@H]1N[C@@H](CC(C)(C)C)[C@](C#N)(c2ccc(Cl)cc2F)[C@H]1c1cccc(Cl)c1F in this test?
y

So what was the verdict on Cc1ncc(NC(=O)c2cccc(C(F)(F)F)c2)cc1-c1cnc(OC2CCOCC2)c(N2CCOCC2)c1 in this test?
y

So what was the verdict on CN1N=C(N)c2cn([C@@H]3O[C@H](COP(=O)(O)O)[C@@H](O)[C@@H]3O)c3ncnc1c23 in this test?
y

So what was the verdict on Cc1cc(O)c(-c2ccc([C@@H](C)CN)cc2)c2c1[nH]c(=O)c1sccc12 in this test?
y

So what was the verdict on Cc1ccc(C(=O)Nc2ccc(CN3CCN(C)CC3)c(C(F)(F)F)c2)cc1C#Cc1cnc2[nH]ncc2c1 in this test?
y

So what was the verdict on C[C@@H]1Cc2c([nH]c3ccccc23)[C@@H](c2c(F)cc(/C=C/C(=O)O)cc2F)N1CC(C)(C)F in this test?
n

So what was the verdict on COc1cc(C(N)=O)ccc1NC(=O)[C@@H]1N[C@@H](CC(C)(C)C)[C@@]2(C(=O)Nc3cc(Cl)ccc32)[C@H]1c1cccc(Cl)c1F in this test?
y

So what was the verdict on COc1ccc2c(c1)c(C1=C(c3c[nH]c4ccccc34)C(=O)NC1=O)cn2CCCN(C)C in this test?
y

So what was the verdict on C[C@H](CCC(=O)O)[C@H]1CC[C@H]2[C@@H]3[C@H](O)C[C@@H]4C[C@H](O)CC[C@]4(C)[C@H]3CC[C@]12C in this test?
n

So what was the verdict on C=CC(=O)Nc1cccc(C)c1Nc1ncc2cc(-c3c(Cl)c(OC)cc(OC)c3Cl)ccc2n1 in this test?
y

So what was the verdict on Cc1cc(O[C@@H](CCC(F)(F)F)c2ccc(C(=O)NCCC(=O)O)cc2)cc(C)c1-c1ccc(C(C)(C)C)cc1 in this test?
y

So what was the verdict on C[C@@H]1[C@H](O)[C@@H](C)/C=C/C=C/C=C/C=C/C=C/C=C/C=C/[C@H](O[C@@H]2O[C@H](C)[C@@H](O)[C@H](N)[C@@H]2O)C[C@@H]2O[C@](O)(C[C@@H](O)C[C@@H](O)[C@H](O)CC[C@@H](O)C[C@@H](O)CC(=O)O[C@H]1C)C[C@H](O)[C@H]2C(=O)O in this test?
n

So what was the verdict on Cn1c(-c2ccccc2C(F)(F)F)nnc1C12CCC(c3noc(C4CC(F)(F)C4)n3)(CC1)CC2 in this test?
n

So what was the verdict on N#Cc1cccnc1N1CCN(C(=O)c2cccc(Cc3n[nH]c(=O)c4ccccc34)c2)CC1 in this test?
y

So what was the verdict on O=C(NO)c1cnc(N2C[C@H]3C[C@@H]2CN3c2cc(C(F)(F)F)ccn2)nc1 in this test?
y

So what was the verdict on COc1cc(N2CCN(C)CC2)ccc1Nc1ncc2c(n1)N(C)c1ccccc1C(=O)N2C in this test?
y

So what was the verdict on CO[C@H]1/C=C/O[C@@]2(C)Oc3c(C)c(O)c4c(O)c(c(/C=N/N5CCN(C)CC5)c(O)c4c3C2=O)NC(=O)/C(C)=C\C=C\[C@H](C)[C@H](O)[C@@H](C)[C@@H](O)[C@@H](C)[C@H](OC(C)=O)[C@@H]1C in this test?
n

###

# assay.details: BET inhibitor-based combinations targeting novel dependencies in MECOM-rearranged (r) AML: UCSD-AML1 cell line (AID 2202235); note: nearly all actives have a fitted effect of over 40% in size
# condition.summary: UCSD-AML1 AML cells viability, CellTiter-Glo, 48 h; series mostly up to 46 µM
Inconclusive results are not listed. Calls of active or inactive are those of the source. Calls come from the whole dose curve; as a rule, active = well fitted inhibition curve with a large enough effect; inconclusive = small, poorly fitted or top-dose-only effect; inactive = no such curve, though single readings can be large or run the other way.
Can you answer with just one of these options? active, inactive

So what was the verdict on NC(=O)c1ccc2nc(-c3ccc(C4(N)CCC4)cc3)c(-c3ccccc3)n2n1 in this test?
active

So what was the verdict on C/C(=N\NC(=S)N1CCC1)c1ccccn1 in this test?
active

So what was the verdict on N[C@@H]1CN(c2c(F)cc3c(=O)c(C(=O)O)cn([C@@H]4C[C@@H]4F)c3c2Cl)CC12CC2 in this test?
inactive

So what was the verdict on C[C@@H]1CC(=O)Nc2cccc(-c3ccc4c(c3)c(-c3cnn(C)c3)nn4C)c2N1 in this test?
active

So what was the verdict on NC1=N[C@@]2(c3cc(NC(=O)c4ccc(F)cn4)ccc3F)COC[C@H]2CS1 in this test?
inactive

So what was the verdict on Cc1cccc(-c2[nH]ncc2-c2ccc(F)c(-c3cnn(CCO)c3)c2)n1 in this test?
inactive

So what was the verdict on CN[C@@H](C)C(=O)N[C@H](C(=O)N1CCC[C@H]1c1nc(C(=O)c2ccc(F)cc2)cs1)C1CCCCC1 in this test?
active

So what was the verdict on C=C1CCC[C@]2(C)C=C3OC(=O)C(C)=C3C[C@@H]12 in this test?
inactive

So what was the verdict on CC(=O)Nc1ccc(O)cc1 in this test?
inactive

So what was the verdict on CCC(=O)O[C@]1(C(=O)CO)CC[C@H]2[C@@H]3CCC4=CC(=O)CC[C@]4(C)[C@H]3CC[C@@]21C in this test?
inactive

So what was the verdict on CC(C)NC(=O)C1CCC(n2c(NC(=O)c3ccc(F)cc3)nc3ccc(CN4CCC(C(C)(C)O)CC4)cc32)CC1 (configuration not stated) in this test?
inactive

So what was the verdict on CS(=O)(=O)c1ccc([C@@H](CC2CCCC2)C(=O)Nc2nccs2)cc1 in this test?
inactive

So what was the verdict on CC1(C)S[C@H]2[C@H](NC(=O)[C@@H](N)c3ccc(O)cc3)C(=O)N2[C@H]1C(=O)O in this test?
inactive

So what was the verdict on CO[C@@H]1[C@@H](O)[C@H](O)[C@@H](n2c3c(Cl)cccc3c3c4c(c5c6cccc(Cl)c6[nH]c5c32)C(=O)NC4=O)O[C@H]1CO in this test?
active

So what was the verdict on COc1ccc2[nH]c3c(c2c1)CCN[C@]31CS[C@@H]2c3c(OC(C)=O)c(C)c4c(c3[C@H](COC1=O)N1[C@@H]2[C@H]2c3c(cc(C)c(OC)c3O)C[C@@H]([C@@H]1O)N2C)OCO4 in this test?
active

So what was the verdict on FC(F)(F)c1ccc(CNc2ccc(Cc3c[nH]c4ncc(Cl)cc34)cn2)cn1 in this test?
inactive

So what was the verdict on CCCc1cc(C)[nH]c(=O)c1CNC(=O)c1cc(-c2ccc(N3CCN(C(C)C)CC3)nc2)cc2c1cnn2C(C)C in this test?
active

So what was the verdict on CN1C(=O)[C@@H](NC(=O)c2cc(Cc3ccccc3)on2)COc2ccccc21 in this test?
inactive

So what was the verdict on COc1ccc(S(=O)(=O)N(C(C)=O)c2ccccc2/C=C/c2cc[n+]([O-])cc2)cc1 in this test?
active

So what was the verdict on C=C[C@H]1CN2CCC1C[C@@H]2C(O)c1ccnc2ccc(OC)cc12 (some centres not stated) in this test?
inactive

So what was the verdict on C=CCNC1=C2CC(C)CC(OC)C(O)C(C)/C=C(\C)C(OC(N)=O)C(OC)/C=C/C=C(\C)C(=O)NC(=CC1=O)C2=O (configuration not stated) in this test?
active

So what was the verdict on COc1ccc2[nH]c(S(=O)Cc3ncc(C)c(OC)c3C)nc2c1 (configuration not stated) in this test?
inactive
